Molecular target: human GLUT4 (Homo sapiens, UniProt P14672)
Sequence (P14672 whole entry): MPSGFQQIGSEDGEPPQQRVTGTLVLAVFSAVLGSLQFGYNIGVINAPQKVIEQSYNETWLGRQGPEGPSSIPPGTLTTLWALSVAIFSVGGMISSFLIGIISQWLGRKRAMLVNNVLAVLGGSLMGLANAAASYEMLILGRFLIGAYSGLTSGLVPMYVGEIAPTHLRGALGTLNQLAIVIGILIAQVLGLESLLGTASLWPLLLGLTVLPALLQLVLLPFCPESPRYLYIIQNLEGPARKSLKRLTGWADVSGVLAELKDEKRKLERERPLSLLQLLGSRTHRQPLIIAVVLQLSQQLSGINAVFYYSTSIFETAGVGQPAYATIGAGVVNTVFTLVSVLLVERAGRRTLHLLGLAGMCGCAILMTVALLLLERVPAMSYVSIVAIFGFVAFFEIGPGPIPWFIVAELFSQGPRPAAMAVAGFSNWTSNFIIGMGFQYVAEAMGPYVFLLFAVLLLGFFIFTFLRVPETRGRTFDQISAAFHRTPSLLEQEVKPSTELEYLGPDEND
Assay: GLUT4 transport assay
Type: cell-based
Conditions: 100 μM compound
Observation type: decrease of relative transport activity of GLUT4, primary screen

[[record]]
mol_smiles = "Cc1cccc2sc(NC(=O)CN3C(=O)S/C(=C/c4ccco4)C3=O)nc12"
result_value = "at least 50%"

[[record]]
mol_smiles = "O=C(CN1C(=O)S/C(=C/c2ccco2)C1=O)Nc1ccc(Cl)c(Cl)c1"
result_value = "at least 50%"

[[record]]
mol_smiles = "O=C(CN1C(=O)S/C(=C/c2ccco2)C1=O)Nc1nc2ccccc2s1"
result_value = "at least 50%"

